Tested on: NCI/ADR-RES ovarian
Test: NCI-60 one-dose screen, 48 h
Details: 10 µM unless noted
This is part of a sample that, as a whole, favours compounds with a hit. Of some 83,000 tested, about 20% had one in any assay. Active and inactive are the calls of the source. How the source made its calls: active means growth percent below 10; inactive means the rest.
Labels: t = active, f = inactive

C/C(=C(\c1ccc(OCCCN(C)C)cc1)c1ccc(OC(=O)Cc2ccccc2)cc1)c1ccc(Cl)cc1 = f
CCc1ccc(Cc2cnc(NC(=O)c3cc(C)oc3C)s2)cc1 = f
CC(C)(C)[C@H](OCc1cn([C@H]2C[C@@H](O)[C@@H](CO)O2)c(=O)[nH]c1=O)c1ccc(C#Cc2ccccc2)cc1[N+](=O)[O-] = f
CC(=O)OCC(=O)O[C@@H]1C[C@]2(C(C)C)O[C@@]1(C)[C@@H]1CC[C@@H](C)[C@H]1[C@@H]2OC(=O)/C=C/c1ccccc1 = f
Cc1ccc(Nc2cc(N)nc(N)n2)cc1 = f
COC(=O)[C@H](C)NC(=O)c1ccc(NC(=O)c2[nH]c(C)c(Cl)c2Cl)c(OCCN)c1 = f
COc1ccc(NC(=O)c2sc3nc(C)c(C(=O)c4ccccc4)cc3c2N)cc1 = f
COC(=O)[C@@H](Cc1c[nH]c2ccccc12)NC[C@@H](O)CN1C(=O)/C(=C\c2cc(OC)c(OC)c(OC)c2)c2ccccc21 = f
COC(=O)c1ccc(-n2cc(CCCOS(=O)(=O)c3ccc(F)cc3)nn2)cc1 = f
COc1cc2c(cc1OC)CC[N+](CCC[N+](C)(C)C)=C2 = f
CN(C)CCCN(CCC1CCCCC1)CCC1CCCCC1 = f
C=C(c1ccc(OC)c(/C=C/C(=O)c2cc(OC)c(OC)c(OC)c2)c1)c1cc(OC)c(OC)c(OC)c1 = t
Cn1ncc(CC(=O)O)c1-n1nnc2cc(Cl)ccc2c1=O = f
CCCCCCC/C=N/NC(=O)c1ccc(-n2cc(-c3ccccc3)nn2)cc1 = f
CN1CCN(CCCNC(=O)c2c3c(n4ccccc24)C(=O)c2ncccc2C3=O)CC1 = f
CNc1nc2ncc(-c3c(C)noc3C)cc2n1Cc1ccccc1 = f
CCOC(=O)CC1CSC(N/N=C(/C)c2cccc(C(F)(F)F)c2)=N1 (stereo unspecified) = f
COc1ccc(S(=O)(=O)Oc2ccc(-c3sc4cc(OS(=O)(=O)c5ccc(OC)cc5)ccc4c3C(=O)c3ccc(OCCN4CCCCC4)cc3)cc2)cc1 = f
COC(=O)[C@H](C)NC(=O)[C@@H]1CCCN1C(=O)CNC(=O)[C@H](C)N = f
O=C1OCC2=C1C(c1cccc(F)c1)c1cc3c(cc1N2CCO)CCC3 (stereo unspecified) = f
COc1ccc(S(=O)(=O)N(C)c2oc(-c3ccc(Cl)cc3)nc2C#N)cc1 = f
